Assay: refractive index (Na D-line) (dimensionless)
Details: 298.15 K; 101.33 kPa; Liquid
So I've got a bunch of molecules here, and I need their refractive index values.
Numbers only.

Check out these entries, answers already filled in.
>  <molecule>
CCOS(=O)(=O)[O-].CCn1cc[n+](C)c1 [1-ethyl-3-methylimidazolium ethyl sulfate]

>  <refractive index>
1.47908

$$$$
>  <molecule>
COC(=O)OC [dimethyl carbonate]

>  <refractive index>
1.36647

$$$$
>  <molecule>
CCCCn1cc[n+](C)c1.F[B-](F)(F)F [1-butyl-3-methylimidazolium tetrafluoroborate]

>  <refractive index>
1.41831

$$$$

Read the next record carefully.
Which refractive index is reported for this molecule? CO [methanol] 1.32668

* * *

Settings: 298.15 K; 101 kPa; Liquid
Numbers after ± are expanded uncertainties.
observable: mass density
Kindly format the answer as number then unit.

Check out these entries, answers already filled in.
>  <compound>
CCCCn1cc[n+](C)c1.F[B-](F)(F)F [1-butyl-3-methylimidazolium tetrafluoroborate]

>  <mass density>
1192.78 ± 0.71 kg/m3

$$$$
>  <compound>
CCOS(=O)(=O)[O-].CCn1cc[n+](C)c1 [1-ethyl-3-methylimidazolium ethyl sulfate]

>  <mass density>
1236.33 ± 0.8 kg/m3

$$$$
>  <compound>
COC(=O)OC [dimethyl carbonate]

>  <mass density>
1063.28 ± 0.28 kg/m3

$$$$

Read the next record carefully.
Which mass density is reported for this compound? CO 786.72 ± 0.49 kg/m3
